TEST SUMMARY: pKa, pI and charge distribution of buffers
Residues, ends and D or L forms follow the SMILES beside them.
MEASUREMENT LABEL: pI
The response must contain the number and no unit.

- COMPOUND: "O=S(=O)(O)CCCN1CCOCC1 [MOPS, 3-[N-morpholino]propanesulphonic acid, reference compound]"
  REPORTED MEASUREMENT: 4
- COMPOUND: "N[C@@H](CCC(=O)O)C(=O)N[C@@H](Cc1cnc[nH]1)C(=O)O [Glu-His] (H-Glu-His-OH)"
  REPORTED MEASUREMENT: 5.2
- COMPOUND: "NCC(=O)N[C@@H](Cc1cnc[nH]1)C(=O)O [Gly-His] (H-Gly-His-OH)"
  REPORTED MEASUREMENT: 7.55

Proceeding to the next compound to report its pI.
Query string: So what does the record say about pI for N[C@@H](Cc1cnc[nH]1)C(=O)N[C@@H](CCC(=O)O)C(=O)O [His-Glu] (H-His-Glu-OH) ?
Result string: 5.2

====

Measured % salt values are reported for all entries that follow.
TEST SUMMARY: pKa, pI and charge distribution of buffers
CONDITION SET: fraction of dipeptide carrying a net charge in aqueous solution at pH equal to pI
Description: At the pI, three species coexist. In an electric field these negative species move in the opposite direction of their positive associated counterions. Choice of the dipeptide buffer will be on a case-by-case basis depending on the drug compound and the desired level of pH control and conductivity of the formulation.
Non-standard residues stand in square brackets, D forms with d. Residues, ends and D or L forms follow the SMILES beside them. Cit = NC(=O)NCCC[C@H](N)C(=O)O
Response body: numeric value in %, unit text excluded.

# count of solved cases: 2
- MOLECULE: "NC(=O)NCCC[C@H](N)C(=O)N[C@@H](Cc1c[nH]cn1)C(=O)O [Citrulline-His] (H-[Cit]-His-OH)"
  MEASUREMENT LABEL: "% salt"
  REPORTED MEASUREMENT: 32
- MOLECULE: "NCCC(=O)N[C@@H](Cc1c[nH]cn1)C(=O)O [Beta-Alanylhistidine]"
  MEASUREMENT LABEL: "% salt"
  REPORTED MEASUREMENT: 16

Query string: For the molecule shown here, NC(=O)CC[C@H](N)C(=O)N[C@@H](Cc1cnc[nH]1)C(=O)O [GIn-His] (H-Gln-His-OH) , give the reported % salt.
Result string: 36

====

TEST SUMMARY: Conductivity of dipeptides at their pI
Type: physicochemical
Residues, ends and D or L forms follow the SMILES beside them.
Assign 1 to entries whose Conductivity at 10^−2 Molar meets or exceeds 30 μS/cm; assign 0 to the rest.

Previously resolved entries follow.
- COMPOUND: "N[C@@H](Cc1cnc[nH]1)C(=O)N[C@@H](CC(=O)O)C(=O)O [His-Asp] (H-His-Asp-OH)"
  ANSWER LABEL: 0
- COMPOUND: "N[C@@H](Cc1cnc[nH]1)C(=O)NCC(=O)O [His-Gly] (H-His-Gly-OH)"
  ANSWER LABEL: 1
- COMPOUND: "NCCCC[C@H](NC(=O)[C@@H](N)CCC(=O)O)C(=O)O [Glu-Lys] (H-Glu-Lys-OH)"
  ANSWER LABEL: 0
- COMPOUND: "C[C@H](NC(=O)[C@@H](N)Cc1cnc[nH]1)C(=O)O [His-Ala] (H-His-Ala-OH)"
  ANSWER LABEL: 1
- COMPOUND: "N[C@@H](Cc1cnc[nH]1)C(=O)N[C@@H](CCC(=O)O)C(=O)O [His-Glu] (H-His-Glu-OH)"
  ANSWER LABEL: 1

Query string: Please indicate if the recorded Conductivity at 10^−2 Molar for CC(C)[C@H](N)C(=O)N[C@@H](Cc1cnc[nH]1)C(=O)O [Val-His] (H-Val-His-OH) meets or exceeds 30 μS/cm.
Result string: 1

Query string: Thanks! And NCC(=O)N[C@@H](Cc1cnc[nH]1)C(=O)O [Gly-His] (H-Gly-His-OH) ?
Result string: 1

Query string: Now this one: NCCCC[C@H](N)C(=O)N[C@@H](CCC(=O)O)C(=O)O [Lys-Glu] (H-Lys-Glu-OH)
Result string: 0

Query string: Note, next up: NCCCC[C@H](N)C(=O)N[C@@H](CC(=O)O)C(=O)O [Lys-Asp] (H-Lys-Asp-OH)
Result string: 0
